ASSAY PROCEDURE: Plasma pharmacokinetics of BI 187004 after single oral doses (LC–MS/MS)
EXPERIMENTAL CONDITIONS: male, human, plasma, po, 160 mg, BI 187004 plasma concentrations, 160 mg single oral, planned time 36 h, Max
MEASURE NAME: concentration at 36 h
Field: value (include unit after the number)

Q) Could you share which concentration at 36 h value was measured for N#Cc1ccc2c(c1)[C@H]1CCCN(C(=O)c3ccc4[nH]cnc4c3)[C@H]1C2 [BI 187004] ?
A) 1390 nM

###

ASSAY PROCEDURE: Plasma pharmacokinetics of BI 187004 after single oral doses (LC–MS/MS)
EXPERIMENTAL CONDITIONS: male, human, plasma, po, 20 mg, BI 187004 plasma concentrations, 20 mg single oral, planned time 6 h, gMean
MEASURE NAME: concentration at 6 h
Quick note: number first, unit second.

Q) May I ask what concentration at 6 h has been recorded for N#Cc1ccc2c(c1)[C@H]1CCCN(C(=O)c3ccc4[nH]cnc4c3)[C@H]1C2 ?
A) 547 nM
